Test system: MDA-MB-435
Assay: In vivo percent body weight versus MDA-MB-435 human breast carcinoma cells implanted sc in mice at a dose 10 umol/kg
Format: functional
Measured Body weight by item
measured.property: Body weight (%)

compound	tested.target	test.result
CCCCCCCCCCCCCC(=O)O[C@@H]1CCC(NC(=O)[C@H](OC)[C@H](O)[C@@H](O)[C@H](O)/C=C/C(C)(C)C)C(=O)NC1 (stereo not given in full)	MDA-MB-435	7.4
CO[C@@H](C(=O)NC1CC[C@@H](OC(=O)/C=C/c2ccccc2)CNC1=O)[C@H](O)[C@@H](O)[C@H](O)/C=C/C(C)(C)C (stereo not given in full)	MDA-MB-435	7.4
CO[C@@H](C(=O)NC1CC[C@@H](OC(=O)C2CCCCC2)CNC1=O)[C@H](O)[C@@H](O)[C@H](O)/C=C/C(C)(C)C (stereo not given in full)	MDA-MB-435	10.5
CO[C@@H](C(=O)NC1CC[C@@H](OC(=O)c2ccccc2)CNC1=O)[C@H](O)[C@@H](O)[C@H](O)/C=C/C(C)(C)C (stereo not given in full)	MDA-MB-435	5.5
CO[C@@H](C(=O)NC1CC[C@@H](OC(=O)CCc2ccccc2)CNC1=O)[C@H](O)[C@@H](O)[C@H](O)/C=C/C(C)(C)C (stereo not given in full)	MDA-MB-435	6
CO[C@@H](C(=O)NC1CC[C@@H](OC(=O)Cc2cccnc2)CNC1=O)[C@H](O)[C@@H](O)[C@H](O)/C=C/C(C)(C)C (stereo not given in full)	MDA-MB-435	6.4
CO[C@@H](C(=O)NC1CC[C@@H](OC(=O)C2CCCCCC2)CNC1=O)[C@H](O)[C@@H](O)[C@H](O)/C=C/C(C)(C)C (stereo not given in full)	MDA-MB-435	10.1
CO[C@@H](C(=O)NC1CC[C@@H](OC(=O)CCc2cccnc2)CNC1=O)[C@H](O)[C@@H](O)[C@H](O)/C=C/C(C)(C)C (stereo not given in full)	MDA-MB-435	10.1
CCCCCc1ccc(C(=O)O[C@@H]2CCC(NC(=O)[C@H](OC)[C@H](O)[C@@H](O)[C@H](O)/C=C/C(C)(C)C)C(=O)NC2)cc1 (stereo not given in full)	MDA-MB-435	6
CCCCCCCCCCCCCC(=O)O[C@H]1CCC(NC(=O)[C@H](OC)[C@H](O)[C@@H](O)[C@H](O)/C=C/C(C)(C)C)C(=O)N(C)C1 (stereo not given in full)	MDA-MB-435	6.1
CO[C@@H](C(=O)NC1CC[C@@H](OC(=O)CC2CCCCC2)CNC1=O)[C@H](O)[C@@H](O)[C@H](O)/C=C/C(C)(C)C (stereo not given in full)	MDA-MB-435	4.6
CO[C@@H](C(=O)NC1CC[C@@H](OC(=O)C2CCCC2)CNC1=O)[C@H](O)[C@@H](O)[C@H](O)/C=C/C(C)(C)C (stereo not given in full)	MDA-MB-435	7.6
CCCCCCCCCCc1ccc(C(=O)O[C@@H]2CCC(NC(=O)[C@H](OC)[C@H](O)[C@@H](O)[C@H](O)/C=C/C(C)(C)C)C(=O)NC2)cc1 (stereo not given in full)	MDA-MB-435	6
CCCCCCCCCCOc1ccc(C(=O)O[C@@H]2CCC(NC(=O)[C@H](OC)[C@H](O)[C@@H](O)[C@H](O)/C=C/C(C)(C)C)C(=O)NC2)cc1 (stereo not given in full)	MDA-MB-435	8.8
CO[C@@H](C(=O)NC1CC[C@@H](OC(=O)Cc2ccccc2)CNC1=O)[C@H](O)[C@@H](O)[C@H](O)/C=C/C(C)(C)C (stereo not given in full)	MDA-MB-435	10.6
